Taken from patent US20240182536A1.

- TEST TARGET: T1, IL-18 receptors on HEK-Blue IL-18 reporter cells (UniProt Q13478 19-541; O95256 20-599, limits assumed); note: unit not given here
- T1 sequence (looked up) 1: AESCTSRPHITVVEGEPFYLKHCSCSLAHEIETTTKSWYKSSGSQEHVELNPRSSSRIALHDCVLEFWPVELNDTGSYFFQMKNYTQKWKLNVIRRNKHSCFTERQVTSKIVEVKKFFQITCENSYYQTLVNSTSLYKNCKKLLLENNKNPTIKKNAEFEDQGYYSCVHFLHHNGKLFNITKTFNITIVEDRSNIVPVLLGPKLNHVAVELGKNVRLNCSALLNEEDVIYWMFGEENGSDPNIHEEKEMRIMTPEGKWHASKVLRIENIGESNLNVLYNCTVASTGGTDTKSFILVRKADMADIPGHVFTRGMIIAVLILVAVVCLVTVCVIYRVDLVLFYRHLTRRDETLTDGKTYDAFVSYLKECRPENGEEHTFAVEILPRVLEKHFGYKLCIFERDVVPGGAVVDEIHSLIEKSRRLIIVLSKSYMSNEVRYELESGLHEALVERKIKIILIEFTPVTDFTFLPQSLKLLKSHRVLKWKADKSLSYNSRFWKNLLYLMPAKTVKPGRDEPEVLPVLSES
- T1 sequence (looked up) 2: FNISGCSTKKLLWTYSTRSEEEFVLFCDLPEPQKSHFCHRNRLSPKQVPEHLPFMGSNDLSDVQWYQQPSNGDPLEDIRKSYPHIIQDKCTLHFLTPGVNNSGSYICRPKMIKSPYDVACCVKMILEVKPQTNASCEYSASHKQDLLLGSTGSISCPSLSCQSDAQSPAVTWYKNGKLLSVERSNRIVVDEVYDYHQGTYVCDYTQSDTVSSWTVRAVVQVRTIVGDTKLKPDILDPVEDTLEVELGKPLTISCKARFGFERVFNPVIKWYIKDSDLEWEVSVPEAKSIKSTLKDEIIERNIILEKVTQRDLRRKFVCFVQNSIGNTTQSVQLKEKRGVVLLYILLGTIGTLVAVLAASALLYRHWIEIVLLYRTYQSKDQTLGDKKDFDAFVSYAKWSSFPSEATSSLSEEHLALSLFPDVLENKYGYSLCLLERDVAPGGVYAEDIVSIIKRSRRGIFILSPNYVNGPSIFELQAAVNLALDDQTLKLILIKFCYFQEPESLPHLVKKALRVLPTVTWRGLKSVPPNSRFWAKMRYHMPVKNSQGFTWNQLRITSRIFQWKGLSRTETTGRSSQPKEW
- TEST: cell-based or functional assay
// thresholds for HEK-Blue activity, No BP, DF-10000 classes: zone 1: < 0.4; zone 2: ≥ 0.4 and < 0.8; zone 3: ≥ 0.8

Use the examples below as a reference point.
# BINDER, GROUP
rows = [
    ("yeast display IL-18 variant K53W, S55A (ligand) YFGKLESKLSVIRNLNDQVLFIDQGNRPLFEDMTDSDMRDNAPRTIFIISMYWDAQPRGMAVTISVKSEKISTLSSENKIISFKEMNPPDNIKDTKSDIIFFQRSVPGHDNKMQFESSSYEGYFLASEKERDLFKLILKKEDELGDRSIMFTVQNED", "zone 1"),
    ("yeast display IL-18 variant T34I, S36T, D40A, N41M, K53T, S55Y (ligand) YFGKLESKLSVIRNLNDQVLFIDQGNRPLFEDMIDTDMRAMAPRTIFIISMYTDYQPRGMAVTISVKSEKISTLSSENKIISFKEMNPPDNIKDTKSDIIFFQRSVPGHDNKMQFESSSYEGYFLASEKERDLFKLILKKEDELGDRSIMFTVQNED", "zone 1"),
    ("yeast display IL-18 variant E6D, S36F, K53T, S55M, R58K (ligand) YFGKLDSKLSVIRNLNDQVLFIDQGNRPLFEDMTDFDMRDNAPRTIFIISMYTDMQPKGMAVTISVKSEKISTLSSENKIISFKEMNPPDNIKDTKSDIIFFQRSVPGHDNKMQFESSSYEGYFLASEKERDLFKLILKKEDELGDRSIMFTVQNED", "zone 2"),
    ("yeast display IL-18 variant T34I, S36V, D40I, N41M, K53G, S55Y (ligand) YFGKLESKLSVIRNLNDQVLFIDQGNRPLFEDMIDVDMRIMAPRTIFIISMYGDYQPRGMAVTISVKSEKISTLSSENKIISFKEMNPPDNIKDTKSDIIFFQRSVPGHDNKMQFESSSYEGYFLASEKERDLFKLILKKEDELGDRSIMFTVQNED", "zone 1"),
    ("yeast display IL-18 variant K53T, S55A (ligand) YFGKLESKLSVIRNLNDQVLFIDQGNRPLFEDMTDSDMRDNAPRTIFIISMYTDAQPRGMAVTISVKSEKISTLSSENKIISFKEMNPPDNIKDTKSDIIFFQRSVPGHDNKMQFESSSYEGYFLASEKERDLFKLILKKEDELGDRSIMFTVQNED", "zone 3"),
]

stdin: Each binder maps to one class by HEK-Blue activity, No BP, DF-10000. Which class for yeast display IL-18 variant K53Y, S55Y (ligand) YFGKLESKLSVIRNLNDQVLFIDQGNRPLFEDMTDSDMRDNAPRTIFIISMYYDYQPRGMAVTISVKSEKISTLSSENKIISFKEMNPPDNIKDTKSDIIFFQRSVPGHDNKMQFESSSYEGYFLASEKERDLFKLILKKEDELGDRSIMFTVQNED ?
stdout: zone 1

stdin: Please let me know in which category the item yeast display IL-18 variant L5W, I22M, K53N, S55Y, Q56H (ligand) YFGKWESKLSVIRNLNDQVLFMDQGNRPLFEDMTDSDMRDNAPRTIFIISMYNDYHPRGMAVTISVKSEKISTLSSENKIISFKEMNPPDNIKDTKSDIIFFQRSVPGHDNKMQFESSSYEGYFLASEKERDLFKLILKKEDELGDRSIMFTVQNED belongs.
stdout: zone 2

stdin: Band of yeast display IL-18 variant K53S, S55F, R104K, H109Y (ligand) YFGKLESKLSVIRNLNDQVLFIDQGNRPLFEDMTDSDMRDNAPRTIFIISMYSDFQPRGMAVTISVKSEKISTLSSENKIISFKEMNPPDNIKDTKSDIIFFQKSVPGYDNKMQFESSSYEGYFLASEKERDLFKLILKKEDELGDRSIMFTVQNED ?
stdout: zone 2

stdin: Class label required: yeast display IL-18 variant K53S, S55Y (ligand) YFGKLESKLSVIRNLNDQVLFIDQGNRPLFEDMTDSDMRDNAPRTIFIISMYSDYQPRGMAVTISVKSEKISTLSSENKIISFKEMNPPDNIKDTKSDIIFFQRSVPGHDNKMQFESSSYEGYFLASEKERDLFKLILKKEDELGDRSIMFTVQNED
stdout: zone 3

stdin: State the class of the binder shown: yeast display IL-18 variant K53S, S55K (ligand) YFGKLESKLSVIRNLNDQVLFIDQGNRPLFEDMTDSDMRDNAPRTIFIISMYSDKQPRGMAVTISVKSEKISTLSSENKIISFKEMNPPDNIKDTKSDIIFFQRSVPGHDNKMQFESSSYEGYFLASEKERDLFKLILKKEDELGDRSIMFTVQNED
stdout: zone 3

stdin: Using the reported HEK-Blue activity, No BP, DF-10000, which band applies to yeast display IL-18 variant L5W, S7Y, K53H, S55M (ligand) YFGKWEYKLSVIRNLNDQVLFIDQGNRPLFEDMTDSDMRDNAPRTIFIISMYHDMQPRGMAVTISVKSEKISTLSSENKIISFKEMNPPDNIKDTKSDIIFFQRSVPGHDNKMQFESSSYEGYFLASEKERDLFKLILKKEDELGDRSIMFTVQNED ?
stdout: zone 2
